Assay name: log P determination by LC-MS in the acidic range
Type: physicochemical
Condition set: LC-MS in the acidic range
Here, each record is paired with measured log P (acid) data.
Answer with a bare number; do not write a unit.

{"columns": ["Molecule", "Result value"],
 "data": [
  ["Cc1cc(NC(=O)c2cccnc2)nn1CC(F)F", 1.05]
]}

Quick one: log P (acid) for CCCC(C)NC(=O)n1nc(NC(=O)c2cccnc2)cc1C (stereo not drawn) ?
2.18

Quick one: log P (acid) for CSCCn1nc(NC(=O)c2cccnc2)cc1C ?
1.22

Quick one: log P (acid) for Cc1cc(NC(=O)c2cccnc2)nn1Cc1ccc2c(c1)CCCC2 ?
2.73

Quick one: log P (acid) for CCC(CC)n1nc(NC(=O)c2cccnc2)cc1C ?
1.92

Quick one: log P (acid) for COc1ccc(-n2ccc(NC(=O)c3cccnc3)n2)cc1 ?
1.6

Quick one: log P (acid) for Cc1cc(NC(=O)c2cccnc2)nn1Cc1ncnn1-c1ccccc1 ?
1.32

Quick one: log P (acid) for Cc1cc(NC(=O)c2cccnc2)nn1CCC(F)(F)F ?
1.45

Quick one: log P (acid) for Cc1cc(NC(=O)c2cccnc2)nn1C(=O)N(C)C ?
0.86

---

Assay name: log P determination by LC-MS in the acidic range
Format: physicochemical
Condition set: LC-MS in the acidic range
Test readout: log P (acid)
Answer with a bare number; do not write a unit.

Solved cases (5 shown):
{"columns": ["Compound", "Result value"],
 "data": [
  ["Cc1cc(NC(=O)c2cccnc2)nn1CC=C(Cl)Cl", 1.83],
  ["CCC(C)NC(=O)n1nc(NC(=O)c2cccnc2)cc1C (stereo not shown)", 1.83],
  ["COC(=O)OCCn1nc(NC(=O)c2cccnc2)cc1C", 0.98],
  ["Cc1cc(NC(=O)c2cccnc2)nn1Cn1ccnn1", 0.65],
  ["Cc1cc(C)nc(-n2nc(NC(=O)c3cncc(F)c3)cc2C)n1", 2.04]
]}

Quick one: log P (acid) for Cc1cc(NC(=O)c2cccnc2)nn1C1CCCCC1 ?
2.02

---

Assay name: log P determination by LC-MS in the acidic range
Format: physicochemical
Condition set: LC-MS in the acidic range
Here, each record is paired with measured log P (acid) data.
Answer with a bare number; do not write a unit.

Quick one: log P (acid) for CCCNS(=O)(=O)n1nc(NC(=O)c2cccnc2)cc1C ?
1.07

Quick one: log P (acid) for Cc1cc(C)nc(-n2nc(NC(=O)c3cccnc3)cc2C)n1 ?
1.6

---

Here, each record is paired with measured log P (acid) data.
Assay name: log P determination by LC-MS in the acidic range
Assay type: physicochemical
Condition set: LC-MS in the acidic range
Answer with a bare number; do not write a unit.

Solved cases (3 shown):
{"columns": ["Compound", "log P (acid)"],
 "data": [
  ["Cc1cc(NC(=O)c2cncc(Br)c2)nn1Cc1ccc(F)cc1", 2.67],
  ["Cc1cc(NC(=O)c2cccnc2)nn1-c1ccc(Cl)cc1", 2.09],
  ["C#CCn1ccc(NC(=O)c2cccnc2)n1", 0.69]
]}

Quick one: log P (acid) for Cc1cc(NC(=O)c2cccnc2)nn1C(=O)NCC1CCCO1 (centres unmarked) ?
1.45

Quick one: log P (acid) for O=C(Nc1nn(Cc2ncccn2)c2ccccc12)c1cncc(F)c1 ?
1.54

Quick one: log P (acid) for Cc1cc(NC(=O)c2cccnc2)nn1C(=O)NCC1COCCO1 (centres unmarked) ?
1.2

Quick one: log P (acid) for Cc1cc(NC(=O)c2cccnc2)nn1Cc1ccc2ccccc2n1 ?
1.66

Quick one: log P (acid) for COC(=O)c1cc(NC(=O)c2cccnc2)nn1C ?
1.05

Quick one: log P (acid) for Cc1cc(N(C)C(=O)c2cccnc2)nn1CC1CCCO1 (centres unmarked) ?
1.05

Quick one: log P (acid) for Cc1cc(NC(=O)c2cccnc2)nn1C(=O)NCc1ncccn1 ?
0.95

Quick one: log P (acid) for CCOC(=O)c1cn(Cc2ccccc2)nc1NC(=O)c1cccnc1 ?
0.79

Quick one: log P (acid) for Cc1cc(NC(=O)c2cccnc2)nn1C(=O)NC(C)(C)c1ncccn1 ?
1.67

Quick one: log P (acid) for O=C(Nc1ccn(Cc2cccc(OC(F)(F)F)c2)n1)c1cccnc1 ?
2.20

Quick one: log P (acid) for Cc1cc(NC(=O)c2cccnc2)nn1Cc1cn2nc(Cl)ccc2n1 ?
1.42

Quick one: log P (acid) for Cc1c(NC(=O)c2cccnc2)nn(Cc2ncccn2)c1C ?
0.76

Quick one: log P (acid) for Cc1cc(NC(=O)c2cccnc2)nn1C(=O)NCc1cccc(Cl)c1 ?
2.39

---

Here, each record is paired with measured log P (acid) data.
Assay name: log P determination by LC-MS in the acidic range
Type: physicochemical
Condition set: LC-MS in the acidic range
Answer with a bare number; do not write a unit.

{"columns": ["Molecule", "log P (acid)"],
 "data": [
  ["Cc1nc2c(c(NC(=O)c3cncc(F)c3)nn2C)c(C)c1C [Compound I-1-57]", 1.6]
]}

Quick one: log P (acid) for Cc1cc(NC(=O)c2cccnc2)nn1Cc1nnc(-c2ccccc2)o1 [Compound I-1-299] ?
1.57

Quick one: log P (acid) for Cc1cc(NC(=O)c2cccnc2)nn1C(=O)NCc1cccc(F)c1 [Compound I-1-327] ?
2.1

Quick one: log P (acid) for Cc1cc(NC(=O)c2cccnc2)nn1C(=O)N(C)S(=O)(=O)c1ccccc1 [Compound I-1-263] ?
2.13

Quick one: log P (acid) for Cc1cc(NC(=O)c2cccnc2)nn1C(C)C1CC1 (stereo not drawn) [Compound I-1-218] ?
1.63

Quick one: log P (acid) for Cc1cc(N(C(=O)c2ccc(Cl)cc2)C(=O)c2cccnc2)nn1C(=O)c1ccc(Cl)cc1 [Compound I-1-42] ?
4.18

Quick one: log P (acid) for Cc1cc(NC(=O)c2ccnnc2)nn1Cn1cccn1 [Compound I-1-240] ?
0.91

Quick one: log P (acid) for O=C(Nc1nn(Cc2ncccn2)c2ccccc12)c1cccnc1 [Compound I-1-215] ?
1.16

Quick one: log P (acid) for Cc1cc(NC(=O)c2ccc(Cl)nc2)nn1Cc1ccccc1 [Compound I-1-98] ?
2.48

Quick one: log P (acid) for Cc1cc(NC(=O)c2cccnc2)nn1Cn1nc(C)n(C2CC2)c1=O [Compound I-1-146] ?
1.05

Quick one: log P (acid) for Cc1cc(NC(=O)c2cccnc2)nn1CC(=O)Cc1ccccc1Cl [Compound I-1-247] ?
1.92

---

Assay name: log P determination by LC-MS in the acidic range
Format: physicochemical
Condition set: LC-MS in the acidic range
Here, each record is paired with measured log P (acid) data.
Answer with a bare number; do not write a unit.

Solved cases (3 shown):
{"columns": ["Compound", "Test readout", "Result value"],
 "data": [
  ["CCOC(=O)c1ccc(Cn2ccc(NC(=O)c3cccnc3)n2)cc1 [Compound I-1-92]", "log P (acid)", 1.85],
  ["Cc1nn(-c2ccccc2)nc1Cn1nc(NC(=O)c2cccnc2)cc1C [Compound I-1-303]", "log P (acid)", 2.33],
  ["O=C(Nc1cc(Cl)n(Cc2ncccn2)n1)c1cccnc1 [Compound I-1-197]", "log P (acid)", 1.04]
]}

Quick one: log P (acid) for Cc1cc(NC(=O)c2cccnc2)nn1S(=O)(=O)c1ccccn1 [Compound I-1-279] ?
1.51

Quick one: log P (acid) for Cc1cc(NC(=O)c2cccnc2)nn1CC(=O)C1(Cl)CC1 [Compound I-1-260] ?
1.38

Quick one: log P (acid) for Cc1cc(NC(=O)c2cnc(Cl)c(Cl)c2)nn1Cc1ccccc1 [Compound I-1-100] ?
3.18

Quick one: log P (acid) for COc1ccc(C(=O)Nc2cc(C)n(Cc3ccccc3)n2)cn1 [Compound I-1-104] ?
2.43

Quick one: log P (acid) for CSc1c(Cl)c(NC(=O)c2cccnc2)nn1C [Compound I-1-201] ?
1.25

Quick one: log P (acid) for CC(=O)n1nc(NC(=O)c2cccnc2)cc1C [Compound I-1-120] ?
1.18

---

Assay name: log P determination by LC-MS in the acidic range
Type: physicochemical
Condition set: pH 2.7, LC-MS in the acidic range; read-out: log P (acid)
Test readout: chromatographic logP

Solved cases (6 shown):
{"columns": ["Mol smiles", "Test readout", "Result value"],
 "data": [
  ["Cc1cc(NC(=O)c2cccnc2)nn1-c1ncccn1", "chromatographic logP", 1.16],
  ["Cc1cc(NC(=O)c2cccnc2)nn1C(=O)OC(C)(C)C", "chromatographic logP", 2.04],
  ["Cc1cc(NC(=O)c2cccnc2)nn1C(=O)C1CC1", "chromatographic logP", 1.65],
  ["Cc1cc(NC(=O)c2cncc(F)c2)nn1Cc1ncccn1", "chromatographic logP", 1.11],
  ["O=C(Nc1ccn(Cc2ncc(C(F)(F)F)cc2Cl)n1)c1ccc(Cl)nc1", "chromatographic logP", 2.64],
  ["Cc1cc(NC(=O)c2cccnc2)nn1C(=O)c1ccccc1Cl", "chromatographic logP", 2.27]
]}

Attention now shifts to the item below.
Quick one: chromatographic logP for Cc1cc(N(C)C(=O)c2cccnc2)nn1-c1ncccn1 ?
1.02
